Reference source for all entries: the NIST ThermoML archive (doi:10.1016/j.jct.2011.04.018)

activity coefficient for assorted compounds
- MEASUREMENT_NOTES: activity coefficient (dimensionless); of the first substance listed, at infinite dilution; xn = mol fraction of the nth substance listed
- CONDITION_LABEL: 328.15 K; 101 kPa; Liquid; Chromatography; x1 = 0

Some compounds with known activity coefficient results, for comparison:
C1CCCC1 [cyclopentane] + O=S(=O)([N-]S(=O)(=O)C(F)(F)F)C(F)(F)F.OCCC[n+]1ccccc1; 13.5
CC(C)=O [acetone] + O=S(=O)([N-]S(=O)(=O)C(F)(F)F)C(F)(F)F.OCCC[n+]1ccccc1; 0.421
C1CCCCC1 [cyclohexane] + O=S(=O)([N-]S(=O)(=O)C(F)(F)F)C(F)(F)F.OCCC[n+]1ccccc1; 21.1

I am curious: what activity coefficient value has been reported for C#CCCCC [1-hexyne] + O=S(=O)([N-]S(=O)(=O)C(F)(F)F)C(F)(F)F.OCCC[n+]1ccccc1 ?
6.13

----------
- MEASUREMENT_NOTES: activity coefficient (dimensionless); of the first substance listed, at infinite dilution; xn = mol fraction of the nth substance listed
- CONDITION_LABEL: 338.15 K; 101 kPa; Liquid; Chromatography; x1 = 0
activity coefficient for assorted compounds
Respond numerically, and do not add a unit to the figure.

Some compounds with known activity coefficient results, for comparison:
CCCO [propan-1-ol] + O=S(=O)([N-]S(=O)(=O)C(F)(F)F)C(F)(F)F.OCCC[n+]1ccccc1; 1.46
C1CCCC1 [cyclopentane] + O=S(=O)([N-]S(=O)(=O)C(F)(F)F)C(F)(F)F.OCCC[n+]1ccccc1; 12.5
c1ccsc1 [thiophene] + O=S(=O)([N-]S(=O)(=O)C(F)(F)F)C(F)(F)F.OCCC[n+]1ccccc1; 1.29
CC(C)=O [acetone] + O=S(=O)([N-]S(=O)(=O)C(F)(F)F)C(F)(F)F.OCCC[n+]1ccccc1; 0.437
Cc1ccccc1C [1,2-dimethylbenzene] + O=S(=O)([N-]S(=O)(=O)C(F)(F)F)C(F)(F)F.OCCC[n+]1ccccc1; 3.13
CCCOCCC [dipropyl ether] + O=S(=O)([N-]S(=O)(=O)C(F)(F)F)C(F)(F)F.OCCC[n+]1ccccc1; 9.12
CO [methanol] + O=S(=O)([N-]S(=O)(=O)C(F)(F)F)C(F)(F)F.OCCC[n+]1ccccc1; 0.804
C=CCCC [1-pentene] + O=S(=O)([N-]S(=O)(=O)C(F)(F)F)C(F)(F)F.OCCC[n+]1ccccc1; 12

I am curious: what activity coefficient value has been reported for Cc1cccc(C)c1 [1,3-dimethylbenzene] + O=S(=O)([N-]S(=O)(=O)C(F)(F)F)C(F)(F)F.OCCC[n+]1ccccc1 ?
3.59

Queued: c1ccccc1 [benzene] + O=S(=O)([N-]S(=O)(=O)C(F)(F)F)C(F)(F)F.OCCC[n+]1ccccc1
1.59

Queued: CCC(C)(C)C [2,2-dimethylbutane] + O=S(=O)([N-]S(=O)(=O)C(F)(F)F)C(F)(F)F.OCCC[n+]1ccccc1
30.9

Queued: C#CCCCCCC [1-octyne] + O=S(=O)([N-]S(=O)(=O)C(F)(F)F)C(F)(F)F.OCCC[n+]1ccccc1
14.2

Queued: C#CCCCC [1-hexyne] + O=S(=O)([N-]S(=O)(=O)C(F)(F)F)C(F)(F)F.OCCC[n+]1ccccc1
6

Queued: CC1CCCCC1 [methylcyclohexane] + O=S(=O)([N-]S(=O)(=O)C(F)(F)F)C(F)(F)F.OCCC[n+]1ccccc1
29

Queued: C=CCCCCC [1-heptene] + O=S(=O)([N-]S(=O)(=O)C(F)(F)F)C(F)(F)F.OCCC[n+]1ccccc1
28.5
